target: T1, human immunoglobulin E (hIgE) (human, UniProt P01854-1 1-428); assay: SPR competition, hIgE over hFcεRIα chip, pH 5.5
T1 construct: also called human IgE; Native IgE (Abcam)
T1 sequence (P01854 whole entry): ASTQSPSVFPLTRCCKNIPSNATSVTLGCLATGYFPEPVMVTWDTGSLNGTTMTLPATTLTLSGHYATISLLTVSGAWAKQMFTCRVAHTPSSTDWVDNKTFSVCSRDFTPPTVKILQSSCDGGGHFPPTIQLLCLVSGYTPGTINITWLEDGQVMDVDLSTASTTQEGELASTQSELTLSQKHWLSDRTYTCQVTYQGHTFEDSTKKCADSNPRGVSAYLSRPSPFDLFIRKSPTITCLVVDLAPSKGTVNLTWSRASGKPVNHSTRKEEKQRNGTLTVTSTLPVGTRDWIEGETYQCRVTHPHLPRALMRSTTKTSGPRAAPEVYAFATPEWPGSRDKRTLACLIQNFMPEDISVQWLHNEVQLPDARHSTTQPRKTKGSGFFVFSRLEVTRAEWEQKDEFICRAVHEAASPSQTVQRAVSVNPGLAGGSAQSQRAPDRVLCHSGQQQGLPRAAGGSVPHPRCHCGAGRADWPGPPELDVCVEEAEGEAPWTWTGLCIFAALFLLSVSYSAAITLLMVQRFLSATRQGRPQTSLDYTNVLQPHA
List of IC50 values.
# unit: µg/mL | format: bare number

A selection of reference data follows.
>>> recorded_measurement("VL3D1_Y49H VL3D1_Q89H (antibody, V domains shown) VH: QLQVVESGGGLVQPGGSLRLSCAASGFTFSSYYMSWVRQAPGKGLEWVSSIYSDGRGSKTFYADSVKGRFTISRDNAKNTLYLQMNSLKSEDTAVYFCAKDLLVAARGSMDYWGQGTQVTVSS VL: NFMLTQPSAVSVSLEQTARITCQGGTLGSYGAHWYQQKPGQAPVLLIHGDNSRPSGIPERFSGTRSGGTATLTISGAQAEDEADYYCHSFDYSGNAVFGGGTHLTVL")
15.2
>>> recorded_measurement("18E2 human IgG1 mAb (antibody, V domains shown, also called clone 18E2) VH: QLQLVESGGGLVQPGGSLRLSCAASGFTFSSYVMSWVRQAPGKGLEWVSSIYHDGSHTYYADFVKGRFTISRDNAKNTLYLQMNSLKSEDTAVYYCASGTSYSGSYYYTDPFFGSWGQGTQVTVSS VL: NFMLTQPSALSVTLGQTARITCQGDRLGSRYIYWYQQKPPQAPVLVIHDDDRRPSGIPERFSGSSSGGTATLTISGAQAEDDGDYYCQSADSSGNPVFGGGTHLTVL")
0.484
>>> recorded_measurement("VH18B9_S35H (antibody, V domains shown) VH: QVQLVESGGGLVQPGGSLRLSCAASGFTFSSYVMHWVRQAPGKGLEWVSSIYSDGSHTYYADSVKGRFTISRDNAKNTLYLQMNSLKSEDTAVYYCAKNLEHYSGSYYYTDPRYDYWGQGTQVTVSS VL: SSALTQPSALSVTLGQTAKITCQGGSLGSSYVHWYQQKPGQAPVLVIYDGDSRPSGIPERFSGSSSGGTATLTISGAQAEDEDDYYCQSADSSGNAVFGGGTHLTVL")
22.3

Switching to the query record.
*Q* Value lookup for IC50; key = VH18E2_S35H (antibody, V domains shown) VH: QLQLVESGGGLVQPGGSLRLSCAASGFTFSSYVMHWVRQAPGKGLEWVSSIYHDGSHTYYADFVKGRFTISRDNAKNTLYLQMNSLKSEDTAVYYCASGTSYSGSYYYTDPFFGSWGQGTQVTVSS VL: NFMLTQPSALSVTLGQTARITCQGDRLGSRYIYWYQQKPPQAPVLVIHDDDRRPSGIPERFSGSSSGGTATLTISGAQAEDDGDYYCQSADSSGNPVFGGGTHLTVL
*A* 3.73

Reference source for all entries: patent US20220177604A1
